Test system: HCV replicon
measurement.description: HCV replicon assay: HCV RNA by Q-RT-PCR, 4 days exposure
Assay type: cell-based, hepatitis C virus (HCV)
conditions: Hepatitis C virus, Huh-7; Huh7 cells harboring self-replicating HCV RNA; read-out: EC50, reduction of HCV RNA levels
pEC50: −log10 of the molar value.
readout.type: pEC50

Nc1ccn([C@@H]2O[C@H](CO)[C@@H](O)C2(F)F)c(=O)n1 | 7.40
